Assign growth to each entry below.
# System: HCC-2998 colon
# METHOD DESCRIPTION: NCI-60 one-dose screen, 48 h (100 = growth as untreated, 0 = no growth, -100 = all killed)
# CONDITION SUMMARY: 10 µM unless noted
# Experimental: Growth inhibition of the HCC-2998 human tumor cell line is measured as a screen for anti-cancer activity. Cells are grown in 96 well plates and exposed to the test compound for 48 hours. Compounds are tested at a single concentration, which is 10^-5 M for most compounds. The reported endpoint is percent growth (GI% or GIPRCNT), where numbers from 0 - 100% represent growth inhibition, and numbers from -100% - 0 represent cell death. For example, a value of 40 represents 60% growth inhibition. […]
Compounds without any hit were thinned out: in the full panel of roughly 83,000, 20% have a hit.
Express your answer in %, writing the number without its unit.

Give the reported value of growth for this record: CCCCCCCCCCCCCCCCCC1OC[C@@H](COC(=O)O[C@@H](C(=O)O[C@H]2C[C@@]3(O)[C@@H](OC(=O)c4ccccc4)[C@@H]4[C@]5(OC(C)=O)CO[C@@H]5C[C@H](O)[C@@]4(C)C(=O)[C@H](OC(C)=O)C(=C2C)C3(C)C)[C@@H](NC(=O)c2ccccc2)c2ccccc2)O1 (stereo partly drawn) 56.8

Give the reported value of growth for this record: Nc1ncnc2n[nH]nc12 68.7

Give the reported value of growth for this record: C/C(=C\c1ccn(-c2ccc(N)c(F)c2)n1)[C@@H]1C[C@@H]2O[C@]2(C)CCC[C@H](C)[C@H](O)[C@@H](C)C(=O)C(C)(C)[C@@H](O)CC(=O)O1 4.73

Give the reported value of growth for this record: N#CC1(C#N)C(c2ccc(N(CCCl)CCCl)cc2)OC23CCCCC2C1(C#N)C(=N)O3 (stereo not drawn) 95.2

Give the reported value of growth for this record: CCOP(=O)(NC[C@H]1O[C@](O)(CO)[C@@H](O)[C@@H]1O)OCC 103

Give the reported value of growth for this record: COC(=O)[C@@H](C)C[C@H](Cc1ccccc1)NC(=O)c1nc([C@@H](C[C@H](C(C)C)N(C)C(=O)[C@@H](NC(=O)[C@H]2CC(=O)CCN2C)C(C)C)OC(C)=O)sc1C(C)C 24.6

Give the reported value of growth for this record: O=C1C=C2C(=CCOC2O)O1 (stereo not drawn) 93.3

Give the reported value of growth for this record: Fc1ccc(N2COOC3(OOC2)C2CC4CC(C2)CC3C4)cc1 106

The origin of these recorded values is PubChem BioAssay (NCI).
